Please respond with reported IC50 for every item in the list.
# SYSTEM NAME: Androgen receptor (Homo sapiens, UniProt P10275, W742L)
# Sequence (P10275 whole entry W742L): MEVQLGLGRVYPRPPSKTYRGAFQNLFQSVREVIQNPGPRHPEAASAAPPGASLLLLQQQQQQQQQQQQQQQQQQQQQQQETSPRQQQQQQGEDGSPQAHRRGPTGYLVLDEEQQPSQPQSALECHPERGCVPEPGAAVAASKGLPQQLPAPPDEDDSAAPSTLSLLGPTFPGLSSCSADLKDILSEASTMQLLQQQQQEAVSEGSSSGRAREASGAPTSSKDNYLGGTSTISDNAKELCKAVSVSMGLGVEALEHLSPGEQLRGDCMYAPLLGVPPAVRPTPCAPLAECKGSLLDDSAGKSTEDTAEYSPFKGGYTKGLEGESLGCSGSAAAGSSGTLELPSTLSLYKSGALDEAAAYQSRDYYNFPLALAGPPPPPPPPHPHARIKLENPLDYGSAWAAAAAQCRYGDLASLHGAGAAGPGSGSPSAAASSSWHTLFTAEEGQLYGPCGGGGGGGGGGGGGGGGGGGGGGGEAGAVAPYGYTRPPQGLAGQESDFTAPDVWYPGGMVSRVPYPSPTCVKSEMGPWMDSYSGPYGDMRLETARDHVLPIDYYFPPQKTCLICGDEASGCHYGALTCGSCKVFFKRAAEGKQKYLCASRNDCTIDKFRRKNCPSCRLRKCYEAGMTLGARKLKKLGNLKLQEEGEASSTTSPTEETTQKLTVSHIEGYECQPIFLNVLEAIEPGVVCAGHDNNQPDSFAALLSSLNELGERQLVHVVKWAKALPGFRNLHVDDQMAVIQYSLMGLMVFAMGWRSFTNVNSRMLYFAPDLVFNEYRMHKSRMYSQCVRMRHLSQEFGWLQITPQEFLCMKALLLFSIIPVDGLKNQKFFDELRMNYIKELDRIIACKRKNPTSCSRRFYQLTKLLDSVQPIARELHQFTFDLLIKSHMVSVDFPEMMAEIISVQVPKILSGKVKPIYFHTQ
# TEST DESCRIPTION: Antagonist activity at androgen receptor W741L mutant expressed in african green monkey CV1 cells assessed as inhibition of dihydrotestosterone-induced transcriptional activity by luciferase reporter gene assay
# Format: functional, cell-based, CV-1
// return numeric value only (unit: µM, not printed)

Form field IC50, entry C[C@](O)(CS(=O)(=O)c1cccc2ccccc12)C(=O)Nc1ccc(C#N)c(C(F)(F)F)c1 : 3

Just so you know, measured IC50 for C[C@](O)(CS(=O)(=O)c1ccccc1-c1ccccc1)C(=O)Nc1ccc(C#N)c(C(F)(F)F)c1 came out at 3

Entry C[C@](O)(CS(=O)(=O)c1ccccc1Cc1ccccc1)C(=O)Nc1ccc(C#N)c(C(F)(F)F)c1 — recorded IC50 = 3

----------
Each entry below carries its measured Ki, system: Androgen receptor (Homo sapiens, UniProt P10275).
Sequence (P10275 whole entry): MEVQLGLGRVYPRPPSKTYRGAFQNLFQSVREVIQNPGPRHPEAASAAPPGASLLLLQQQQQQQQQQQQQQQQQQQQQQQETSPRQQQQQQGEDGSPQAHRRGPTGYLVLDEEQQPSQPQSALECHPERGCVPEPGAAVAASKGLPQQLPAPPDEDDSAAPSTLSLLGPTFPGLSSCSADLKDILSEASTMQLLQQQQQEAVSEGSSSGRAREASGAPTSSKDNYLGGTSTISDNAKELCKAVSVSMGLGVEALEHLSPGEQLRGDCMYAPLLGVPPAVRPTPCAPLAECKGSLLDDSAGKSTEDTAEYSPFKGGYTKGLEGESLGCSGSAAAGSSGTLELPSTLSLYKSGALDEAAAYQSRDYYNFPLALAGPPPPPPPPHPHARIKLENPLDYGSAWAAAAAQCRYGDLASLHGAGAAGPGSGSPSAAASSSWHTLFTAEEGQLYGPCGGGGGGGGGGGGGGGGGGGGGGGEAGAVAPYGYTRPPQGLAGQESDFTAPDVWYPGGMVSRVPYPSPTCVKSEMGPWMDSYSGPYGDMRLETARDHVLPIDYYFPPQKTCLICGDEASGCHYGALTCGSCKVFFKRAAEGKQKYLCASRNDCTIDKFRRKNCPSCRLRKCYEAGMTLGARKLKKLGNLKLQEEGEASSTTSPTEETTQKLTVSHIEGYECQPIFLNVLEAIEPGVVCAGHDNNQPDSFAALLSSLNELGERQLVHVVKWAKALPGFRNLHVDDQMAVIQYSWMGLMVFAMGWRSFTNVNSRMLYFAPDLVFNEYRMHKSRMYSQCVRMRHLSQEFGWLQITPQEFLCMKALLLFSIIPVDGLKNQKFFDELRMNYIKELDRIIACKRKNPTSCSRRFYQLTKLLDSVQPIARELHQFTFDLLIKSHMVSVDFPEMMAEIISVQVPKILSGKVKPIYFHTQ
Could you give me the number in nM? Just the number is fine.

The recorded Ki with Androgen receptor (Homo sapiens, UniProt P10275) for C[C@](O)(CS(=O)(=O)c1ccccc1-c1ccccc1)C(=O)Nc1ccc(C#N)c(C(F)(F)F)c1 was 2000

Entry C[C@](O)(CS(=O)(=O)c1ccccc1Cc1ccccc1)C(=O)Nc1ccc(C#N)c(C(F)(F)F)c1 under Androgen receptor (Homo sapiens, UniProt P10275) had Ki of 2000

Given the molecule C[C@](O)(CS(=O)(=O)c1cccc2ccccc12)C(=O)Nc1ccc(C#N)c(C(F)(F)F)c1 and test system Androgen receptor (Homo sapiens, UniProt P10275), the measured Ki is 2000

----------
# SYSTEM NAME: Androgen receptor (Homo sapiens, UniProt P10275, T878A)
# Sequence (P10275 whole entry T878A): as the sequence (P10275 whole entry W742L) above, with L742W, T878A counted along it
# TEST DESCRIPTION: Binding affinity to androgen receptor T877A mutant by competitive binding assay
VALUE KIND: Ki
Write the numeric value and follow it with the unit.

The compound C[C@](O)(CS(=O)(=O)c1ccccc1Cc1ccccc1)C(=O)Nc1ccc(C#N)c(C(F)(F)F)c1 showed Ki equal to 2 µM

Record C[C@](O)(CS(=O)(=O)c1cccc2ccccc12)C(=O)Nc1ccc(C#N)c(C(F)(F)F)c1 . Reported Ki: 2 µM

// C[C@](O)(CS(=O)(=O)c1ccccc1-c1ccccc1)C(=O)Nc1ccc(C#N)c(C(F)(F)F)c1 : Ki value = 2 µM

----------
# SYSTEM NAME: Androgen receptor (Homo sapiens)
# TEST DESCRIPTION: Antagonist activity at wild type androgen receptor expressed in african green monkey CV1 cells assessed as inhibition of dihydrotestosterone-induced transcriptional activity by luciferase reporter gene assay
VALUE KIND: IC50

According to the records, this molecule C[C@](O)(CS(=O)(=O)c1cccc2ccccc12)C(=O)Nc1ccc(C#N)c(C(F)(F)F)c1 displays IC50 of 3 µM

According to the records, this molecule C[C@](O)(CS(=O)(=O)c1ccccc1-c1ccccc1)C(=O)Nc1ccc(C#N)c(C(F)(F)F)c1 displays IC50 of 3 µM

Looking up C[C@](O)(CS(=O)(=O)c1ccccc1Cc1ccccc1)C(=O)Nc1ccc(C#N)c(C(F)(F)F)c1 , I see its IC50 listed as 3 µM
